This section presents Ki values reported for Adenosine receptor A1 (Homo sapiens) in the literature.

# compound, prefix operator, Ki (nM)
measured = [
    ("O=c1c2ncn3nc(-c4ccccc4)cc3c2c(-c2cccnc2)nn1Cc1ccccc1", "=", 11.4),
    ("CCCn1c(=O)c2[nH]c(-c3cnn(Cc4nc(-c5ccc(C)cc5)no4)c3)nc2n(CCC)c1=O", "=", 2600),
    ("Nc1nc(-c2cccc(O)c2)nc2sc(-c3ccccc3)nc12", "=", 58.5),
    ("COCCOc1ccc(N2CCN(CCn3ncc4c3nc(N)n3nc(-c5ccco5)nc43)CC2)cc1", ">", 1000),
    ("CCCNc1nc(C#Cc2ccc(Cl)s2)nc2c1ncn2[C@H]1[C@H](O)[C@H](O)[C@]2(C(=O)NC)C[C@H]12", ">", 10000),
    ("Cn1cc2c(nc(NCc3ccc(F)cc3)n3nc(-c4ccco4)nc23)n1", "=", 823),
    ("CCCn1c(=O)c2nc(-c3cnn(Cc4cc(C(F)(F)F)ccc4Cl)c3)[nH]c2n(CCC)c1=O", "=", 1200),
    ("Nc1nc(N2CCC(CNC(=O)c3cccc(S(N)(=O)=O)c3)CC2)nc2sc(-c3ccco3)nc12", "=", 568),
    ("CCNC(=O)[C@H]1O[C@@H](n2cnc3c(Nc4ccc(OCC(=O)Nc5ccc(OC)c(OC)c5)cc4)ncnc32)[C@H](O)[C@@H]1O", "=", 7.7),
    ("Cn1cc2c(nc(NC(=O)Cc3ccc(-c4ccccc4)cc3)n3nc(-c4ccco4)nc23)n1", "=", 1460),
    ("CN(C)c1nc(-c2ncc[nH]2)c2sccc2n1", "=", 5770),
    ("O=c1c2ncn3nc(-c4ccsc4)cc3c2c(-c2cccc(F)c2)nn1Cc1ccccc1", "=", 189),
    ("CCOC(=O)c1cnc(NCc2ccc(OC)cc2)n2nc(-c3ccco3)nc12", "=", 1250),
    ("Cc1ccc2c(O)c(C(=O)NC(C)c3ccccc3)cnc2n1 (centres undefined)", "=", 717),
    ("Nc1nc(C(=O)NCc2cccc3c(C(=O)N4CCN(c5ccccc5)CC4)ccnc23)c2cccc(F)c2n1", "=", 6000),
    ("CCOC(=O)c1cnc(NCc2ccc(F)cc2)n2nc(-c3ccco3)nc12", "=", 932),
    ("CCOc1ccc(-c2c(C#N)c(N)nc(SCC(N)=O)c2C#N)cc1", "=", 345),
    ("COC[C@H]1C[C@H](OC)CN1c1cc(NC(C)=O)nc(-n2nc(C)cc2C)n1", "=", 352),
    ("N#Cc1c(SCc2ncc[nH]2)nc(N)nc1-c1ccccc1", "=", 69.2),
    ("O=C(Nc1nc2nn(CCCc3ccccc3)cc2c2nc(-c3ccco3)nn12)C(c1ccccc1)c1ccccc1", "=", 307),
    ("O[C@@H]1[C@H](O)[C@@H](CSc2ccccc2F)O[C@H]1n1cnc2c(N[C@@H]3CCC[C@H]3O)ncnc21", "=", 12),
    ("COc1ccc(-n2cc3c(O)nc4ccccc4c3n2)cc1", ">", 1000),
    ("Cn1cc2c(nc(NC(=O)Cc3ccccc3)n3nc(-c4ccc([N+](=O)[O-])cc4)nc23)n1", "=", 23200),
    ("Cc1cc(C)n(-c2cc(NC(=O)CN3CCOCC3)nc(-c3ccc(C)o3)n2)n1", "=", 500),
    ("CC(C)n1cc2c(Cl)nc(NC(=O)c3ccccc3)nc2n1", "=", 19600),
    ("Nc1ccc(-n2nc3c(=O)[nH]c(-c4ccccc4)cn3c2=O)cc1", "=", 247),
    ("O=P(O)(O)OC[C@H]1O[C@@H](n2cnc3c(NC4CCCC4)nc(Cl)nc32)[C@H](O)[C@@H]1O", "=", 25),
    ("CCC(=O)Nc1nc(-c2ccc(SC)cc2)cc(-c2ccc(SC)cc2)n1", "=", 505),
    ("CNc1nc(-c2ccco2)c2sccc2n1", "=", 568),
    ("CC(C)Nc1nc2nn(C)cc2c2nc(-c3ccco3)nn12", "=", 333),
    ("CCCn1cc2c(nc(NC(=O)Cc3ccc4ccccc4c3)n3nc(-c4ccco4)nc23)n1", "=", 160),
    ("N#Cc1c(N)nc(SCc2ncn[nH]2)c(C#N)c1-c1ccc(OCC2CC2)cc1", "=", 338),
    ("CC(=O)Nc1cc(-c2cccc(N3CCC(O)CC3)n2)nc(-n2nc(C)cc2C)n1", "=", 470),
    ("CCCn1c(=O)c2nc([C@H]3CC[C@H](COCc4ccccc4)CC3)[nH]c2n(CCC)c1=O", "=", 171),
    ("Cc1ccc(C(=O)Nc2c(C(=O)NC3CCCC3)[nH]c3ccc(C)cc23)cc1", "=", 513),
    ("Cc1ccc(Nc2nc(N(C)C)c(C(=O)Nc3sc4c(c3C#N)CCCC4)s2)cc1", ">", 100000),
    ("COc1ccc(Nc2nc(-c3ccc(C)cc3)c(C(=O)Nc3sc4c(c3C#N)CCCC4)s2)cc1", ">", 30000),
    ("Cc1nn(C(C)c2ccccc2)c(=O)c2ncn3nc(-c4ccccc4)cc3c12 (centres undefined)", "=", 475),
    ("CCc1cc2c(=O)[nH]c(-c3ccoc3)nc2s1", "=", 56200),
]

* * *

# Ki against UniProt P30542, merged from multiple literature sources
Target: UniProt P30542
Sequence (P30542 whole entry): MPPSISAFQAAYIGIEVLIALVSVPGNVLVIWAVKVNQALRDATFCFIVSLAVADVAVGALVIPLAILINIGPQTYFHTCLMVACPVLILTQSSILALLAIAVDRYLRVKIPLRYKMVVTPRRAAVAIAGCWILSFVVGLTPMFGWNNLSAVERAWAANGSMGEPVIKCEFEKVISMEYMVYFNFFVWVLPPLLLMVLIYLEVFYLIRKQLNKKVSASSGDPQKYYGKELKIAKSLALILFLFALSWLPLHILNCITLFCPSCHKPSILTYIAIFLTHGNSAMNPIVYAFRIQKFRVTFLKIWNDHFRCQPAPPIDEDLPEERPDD
property measured: Ki (nM)

# molecule, prefix operator, quantitative readout
data = [
    ("CC1C(=O)c2nc(CCCCN3N=C(Cl)CCC3=O)[nH]c2N(C)C1=O (stereo not given)", "=", 370),
    ("O=c1[nH]c2nc(-c3cnn(Cc4noc(-c5ccc(C(F)(F)F)cc5)n4)c3)[nH]c2c(=O)n1CC1CC1", ">", 6000),
    ("CCCCC#Cc1nc(NCc2cccc(I)c2)c2nc(-c3cccs3)n([C@@H]3OC[C@@H](O)[C@H]3O)c2n1", "=", 2580),
    ("Cc1cccc2[nH]c(-c3cnc4ccccc4n3)nc12", "=", 8000),
    ("Cc1cn2c(nc3c2c(=O)n(CCCO)c(=O)n3Cc2ccccc2)[nH]1", ">", 1000),
    ("COc1ccc(C(=O)Nc2nc(-c3ccccc3)c(-c3nc4ccccc4c(=O)n3-c3ccc(OC)cc3)s2)cc1", ">", 1000),
    ("N#Cc1c(N)nc(SCC(=O)OCc2ccccc2)c(C#N)c1-c1ccco1", "=", 86),
    ("Nc1nc(C(=O)NCc2cccc3c2OCCN3)c2cccc(F)c2n1", "=", 135),
    ("Nc1nc(C(=O)NCc2cncc3ccccc23)c2cccc(F)c2n1", "=", 78),
    ("CCCn1c(=O)c2nc(-c3ccc(OCc4nc(-c5ccccc5F)no4)cc3)[nH]c2n(CCC)c1=O", ">", 6000),
]

* * *

Molecular target: Adenosine receptor A1 (Homo sapiens)
Sequence (P30542 whole entry): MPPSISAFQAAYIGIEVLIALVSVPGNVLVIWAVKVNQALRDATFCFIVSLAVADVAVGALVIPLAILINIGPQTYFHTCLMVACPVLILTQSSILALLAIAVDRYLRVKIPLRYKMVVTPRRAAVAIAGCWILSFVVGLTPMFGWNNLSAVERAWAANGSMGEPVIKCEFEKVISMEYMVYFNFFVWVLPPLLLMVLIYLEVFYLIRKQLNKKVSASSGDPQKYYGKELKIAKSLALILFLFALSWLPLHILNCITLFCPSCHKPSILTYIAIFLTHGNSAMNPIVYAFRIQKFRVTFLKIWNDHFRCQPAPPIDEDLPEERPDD
Listing of Ki toward Adenosine receptor A1 (Homo sapiens), each taken from a published source.

# structure smiles string, prefix operator, Ki, µM
rows = [
    ("COc1cccc(-c2cc(NC(C)=O)nc(-n3nc(C)cc3C)n2)c1", "=", 0.065),
    ("Nc1nc(-c2ccc(S(N)(=O)=O)cc2)cn2c(=O)n(-c3ccccc3)nc12", "=", 0.205),
    ("CCOC(=O)c1nc(NC(=O)Cc2ccccc2)nc2nn(CC(C)(C)C)cc12", "=", 2.7),
    ("CCCC(=O)Nc1nc(-c2ccccc2)c(C#N)c(-c2ccccc2)n1", "=", 0.0029),
    ("CCOC(=O)c1nc(NC(=O)c2ccc(C)cc2)nc2nn(CCc3ccccc3)cc12", ">", 100),
]
